Experimental system: T1, rhesus recombinant CD70 (FLAG-TNC-rhesus CD70) (rhesus)
T1 construct: also called rhesus Flag-TNC-CD70
Assay info: Biacore; rhesus recombinant CD70 on chip; Fab injected
Experimental endpoint: koff (s⁻¹)
State the answer as a number, implicitly in s⁻¹.

>  <Binder>
1C2 Fab (Fab, V domains shown, Llama-derived Fab) VH: ELQVVESGGGLVQPGGSLRLSCAASGFTLSNYWMHWVRQAPRKGLEWVSTISTDNSRTYYADSVKGRFTISRDHAKNTLILQMNSLKSEDTAVYYCIRGSDYEHWGQGTQVTVSS VL: QTVVTQEPSLSVSPGGTVTLTCGLSSGSVTTTNYPGWFQQTPGQAPRTLIYSTSSRHSGVPSRFSGSISGNKAALTITGAQPEDEADYYCALEEIGSYTYMFGGGTHLTVLG

>  <Measure unit>
s⁻¹

>  <koff>
0.00032

$$$$
>  <Binder>
9B2 Fab (Fab, V domains shown, Llama-derived Fab) VH: QLQVVESGGGLMQPGGSLRLSCAASGFTFSGSAMSWVRQAPGKGLEWVSSIYSHSMYTYYADSVKSRFTISTDNAKNTLYLQMNSLKPDDTAVYYCAASSDYEGLFVSWGQGTQVTVSS VL: QAVLTQPPSLSASPGSSVRLTCTLNSANSVGSYDISWYQQKAGSPPRYLLYYYSDSLSHQGSGVPSRFSGSTDASANAGLLLISGLQPEDEADYYCSAYNRGSHVFGGGTKLTVLG

>  <Measure unit>
s⁻¹

>  <koff>
0.00061

$$$$

Continue with the next binder.
Need koff of 9G2 Fab (Fab, V domains shown, Llama-derived Fab) VH: QVQLVESGGGLMQPGGSLRLSCAASGFTFSSSAMSWVRQAPGKGLEWVSSIYSDSSYTYYADSVKSRFTISTDNAKNTLYLQMNSLKPDDTAVYYCAGSSDYEGSFASWGQGTQVTVSS VL: QSVVTQPPSLSASPGSSVRLTCTLSSGNSVGNYDISWYQQKAGSPPRYLLYYYSDSVKHQGSGVPSRFSGSSDASANAGLLLISGLQPEDEADYYCSAYKSGSHVFGGGTKLTVLG , thanks.
0.00018
